System Tested: Plasma kallikrein (Homo sapiens)
Sequence (P03952 20-390 limits assumed): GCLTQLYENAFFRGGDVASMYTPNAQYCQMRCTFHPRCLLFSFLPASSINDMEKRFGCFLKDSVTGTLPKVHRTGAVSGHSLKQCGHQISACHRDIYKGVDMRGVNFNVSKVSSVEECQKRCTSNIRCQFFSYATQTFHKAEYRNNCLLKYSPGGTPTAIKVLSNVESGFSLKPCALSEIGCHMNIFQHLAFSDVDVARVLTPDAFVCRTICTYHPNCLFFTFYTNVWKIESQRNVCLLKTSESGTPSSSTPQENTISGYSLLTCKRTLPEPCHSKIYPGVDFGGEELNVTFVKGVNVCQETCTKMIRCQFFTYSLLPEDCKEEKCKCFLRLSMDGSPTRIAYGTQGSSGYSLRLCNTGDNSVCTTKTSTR
Sequence (P03952 391-638 limits assumed): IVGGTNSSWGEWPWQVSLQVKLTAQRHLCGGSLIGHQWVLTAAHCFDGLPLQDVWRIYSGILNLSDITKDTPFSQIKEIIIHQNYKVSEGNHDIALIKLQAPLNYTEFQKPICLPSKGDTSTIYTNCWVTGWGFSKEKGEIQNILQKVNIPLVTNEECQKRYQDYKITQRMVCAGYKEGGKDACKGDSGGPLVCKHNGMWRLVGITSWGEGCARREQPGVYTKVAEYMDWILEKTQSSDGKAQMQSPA
Assay Explanation: Inhibition of plasma kallikrein
pIC50: −log10 of the molar value.
Outcome Measure: pIC50

>>> test_result("NC[C@H]1CC[C@H](C(=O)NC(Cc2ccc(Oc3ncccn3)cc2)C(=O)Nc2cccc(C(=O)O)c2)CC1 (stereo partly specified)")
6.15

----------
Target protein (sequence): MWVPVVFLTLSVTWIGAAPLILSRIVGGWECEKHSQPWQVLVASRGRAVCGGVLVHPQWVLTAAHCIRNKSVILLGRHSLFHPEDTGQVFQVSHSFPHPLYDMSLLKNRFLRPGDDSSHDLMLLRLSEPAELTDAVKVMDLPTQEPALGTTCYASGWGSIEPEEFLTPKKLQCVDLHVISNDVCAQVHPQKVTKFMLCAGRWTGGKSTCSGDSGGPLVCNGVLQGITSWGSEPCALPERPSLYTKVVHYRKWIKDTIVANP
Outcome Measure: IC50 (nM)

>>> test_result("O=C(OCc1ccccc1)c1cccc(OC(=O)N2C(=O)[C@@H](Cc3ccc(O)cc3)[C@H]2C(=O)OCc2ccccc2)c1")
226

The values you see were collected from ChEMBL document CHEMBL2010718.
